Target: 17-beta-hydroxysteroid dehydrogenase type 3 (Homo sapiens, UniProt P37058)
Sequence (P37058 whole entry): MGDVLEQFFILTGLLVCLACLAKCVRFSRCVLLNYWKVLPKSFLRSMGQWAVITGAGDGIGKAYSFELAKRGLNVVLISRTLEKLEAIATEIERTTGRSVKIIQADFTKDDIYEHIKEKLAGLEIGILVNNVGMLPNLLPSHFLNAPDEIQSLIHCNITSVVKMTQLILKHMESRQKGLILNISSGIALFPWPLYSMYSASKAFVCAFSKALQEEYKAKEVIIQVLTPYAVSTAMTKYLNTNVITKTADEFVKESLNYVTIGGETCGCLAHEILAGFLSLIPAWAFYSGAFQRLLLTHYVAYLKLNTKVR
Test: Inhibition of human 17-beta-HSD3 expressed in LNCaP cells assessed as reduction in […]-3,17-dione to [14C]-testosterone at 0.3 uM incubated for 1 hr by thin layer chromatography
Assay type: cell-based

# Structure Smiles, Test System, inhibition at 0.3 µM, %
measured = [
    ("COc1cccc(CN2CCN(C[C@@]3(O)CC[C@@]4(C)[C@@H](CC[C@@H]5[C@@H]4CC[C@]4(C)C(=O)C(C)(C)C[C@@H]54)C3)CC2)c1", "17-beta-hydroxysteroid dehydrogenase type 3 (Homo sapiens, UniProt P37058)", 12.4),
    ("COc1cccc(CN2CCN(C[C@@]3(O)CC[C@@]4(C)[C@@H](CC[C@@H]5[C@@H]4CC[C@@]4(C)[C@H]5CCC4(F)F)C3)CC2)c1", "17-beta-hydroxysteroid dehydrogenase type 3 (Homo sapiens, UniProt P37058)", 1.1),
    ("COc1cccc(CN2CCN(C[C@@]3(O)CC[C@@]4(C)[C@@H](CC[C@@H]5[C@@H]4CC[C@]4(C)C(=O)CC[C@@H]54)C3)CC2)c1", "17-beta-hydroxysteroid dehydrogenase type 3 (Homo sapiens, UniProt P37058)", 30.2),
    ("COc1cccc(CN2CCN(C[C@@]3(O)CC[C@@]4(C)[C@@H](CC[C@@H]5[C@@H]4CC[C@]4(C)[C@@H](O)CC[C@@H]54)C3)CC2)c1", "17-beta-hydroxysteroid dehydrogenase type 3 (Homo sapiens, UniProt P37058)", 5),
    ("COc1cccc(CN2CCN(C[C@@]3(O)CC[C@@]4(C)[C@@H](CC[C@@H]5[C@@H]4CC[C@@]4(C)[C@H]5CC[C@]4(C)O)C3)CC2)c1", "17-beta-hydroxysteroid dehydrogenase type 3 (Homo sapiens, UniProt P37058)", 2),
    ("COc1cccc(CN2CCN(C[C@@]3(O)CC[C@@]4(C)[C@@H](CC[C@@H]5[C@@H]4CC[C@]4(C)[C@H](O)CC[C@@H]54)C3)CC2)c1", "17-beta-hydroxysteroid dehydrogenase type 3 (Homo sapiens, UniProt P37058)", 5.2),
    ("C#C[C@]1(O)CC[C@H]2[C@@H]3CC[C@H]4C[C@@](O)(CN5CCN(Cc6cccc(OC)c6)CC5)CC[C@]4(C)[C@H]3CC[C@@]21C", "17-beta-hydroxysteroid dehydrogenase type 3 (Homo sapiens, UniProt P37058)", 2),
]
